// reported koff per item
Molecular target: T1, Cynomolgus CD3εδ Fc heterodimer (Cy CD3ε Fc / CD3δ Fc-HIS) (cynomolgus, UniProt Q95LI8 22-100)
T1 chain 1: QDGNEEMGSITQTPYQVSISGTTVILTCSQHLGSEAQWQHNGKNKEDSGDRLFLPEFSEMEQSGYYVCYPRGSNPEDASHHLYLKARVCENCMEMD
T1 chain 2: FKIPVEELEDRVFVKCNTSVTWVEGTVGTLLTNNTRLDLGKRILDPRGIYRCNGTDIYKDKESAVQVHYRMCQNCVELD
Assay: BLI (Octet), IgG on AHC sensor, pH 6.0
Write the number in s⁻¹ without appending the unit.

In the examples that follow, each entry is paired with its recorded koff.
SAD10320_P03_C09 (ADI-57381) (antibody, V domains shown, IgG; also called Ab99) VH: QVQLVQSGAEVKKPGASVKVSCEASGFNIKDYYMHWVRQAPGQRLEWMGWIDLENANTIYDAKFQGRVTITRDTSASTAYMELSSLRSEDTAVYYCARDAYGHVFYDVWGQGTLVTVSS VL: DIVMTQSPDSLAVSLGERATINCKSSQSLLNARTGKNYLAWYQQKPGQPPKLLIYWASTRESGVPDRFSGSGSGTDFTLTISSLQAEDVAVYYCKQSYLHRTFGGGTKVEIK ... 0.0051
SAD10319_P03_E08 (ADI-48637) (antibody, V domains shown, IgG; also called Ab21) VH: QVQLVQSGAEVKKPGASVKVSCKASGYTFNDYAMHWVRQAPGQRLEWMGYINGTGATVYSQKFQGRVTITRDTSASTAYMELSSLRSEDTAVYYCARDAYHHYFYDVWSQGTLVTVSS VL: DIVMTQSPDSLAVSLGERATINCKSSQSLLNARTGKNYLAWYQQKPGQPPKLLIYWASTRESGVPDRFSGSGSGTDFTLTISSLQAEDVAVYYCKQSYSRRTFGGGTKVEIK ... 0.0197

As a next step, examine the binder that follows.
State its koff: SAD10318_P03_A08 (ADI-57283) (antibody, V domains shown, IgG; also called Ab195) VH: QVQLVQSGAEVKKPGASVKVSCKASGFNIKDYYMHWVRQAPGQRLEWMGWIDLENANTIYDAKFQGRVTITRDTSASTAYMELSSLRSEDTAVYYCARDAYGRYHYDHWGQGTLVTVSS VL: DIVMTQSPDSLAVSLGERATINCKSSQSLLNARTGHNHLAWYQQKPGQPPKLLIYWASTRESGVPDRFSGSGSGTDFTLTISSLQAEDVAVYYCKQSYSRRTFGGGTKVEIK 0.006
